- assay_overview: amyloid nucleation score (Sup35N fusion, yeast selection) (log enrichment); library NNK1; higher = more nucleation; inactive = no reads after selection;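 further: zero at mode of non-aggregating sequences after 7 days selection at 30°C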
// criterion not met strictly below 0.4 in amyloid nucleation score; criterion met otherwise

Challenge: Would you say "WDKADVFLDDVSASRSSLKM" shows amyloid nucleation score at minimum 0.4?
Response given: criterion met

Challenge: Would you say "DVKCRLWIHAL" shows amyloid nucleation score at minimum 0.4?
Response given: criterion not met

Challenge: Would you say "LYSLVGCWTLCLNVSCFEWL" shows amyloid nucleation score at minimum 0.4?
Response given: criterion met

Challenge: Would you say "FPLGSFIDLQRDMGIN" shows amyloid nucleation score at minimum 0.4?
Response given: criterion met

Challenge: Would you say "RPSITNRPC" shows amyloid nucleation score at minimum 0.4?
Response given: criterion met

Challenge: Would you say "GSMWGGFPVG" shows amyloid nucleation score at minimum 0.4?
Response given: criterion met

Challenge: Would you say "DWVELR" shows amyloid nucleation score at minimum 0.4?
Response given: criterion not met

Challenge: Would you say "YDTTTHMRISMVGSSQPVCL" shows amyloid nucleation score at minimum 0.4?
Response given: criterion not met

Challenge: Would you say "IWMGCYVNVARSK" shows amyloid nucleation score at minimum 0.4?
Response given: criterion met

Challenge: Would you say "EGPQIKAAGKPY" shows amyloid nucleation score at minimum 0.4?
Response given: criterion not met

Challenge: Would you say "MVSIWINFT" shows amyloid nucleation score at minimum 0.4?
Response given: criterion met

Challenge: Would you say "LRWPFCQGLYTYLCSLT" shows amyloid nucleation score at minimum 0.4?
Response given: criterion met

Challenge: Would you say "SKLYLIEVFLYA" shows amyloid nucleation score at minimum 0.4?
Response given: criterion not met

Challenge: Would you say "RQLFIGGAPDLC" shows amyloid nucleation score at minimum 0.4?
Response given: criterion not met

Challenge: Would you say "KNAPLPRIVTIGKVLRYNRG" shows amyloid nucleation score at minimum 0.4?
Response given: criterion met

Challenge: Would you say "MHSPRGLE" shows amyloid nucleation score at minimum 0.4?
Response given: criterion met

Challenge: Would you say "GITGSWINFRNCLTR" shows amyloid nucleation score at minimum 0.4?
Response given: criterion met

Challenge: Would you say "LRRSTFASVDLRRADFIKLF" shows amyloid nucleation score at minimum 0.4?
Response given: criterion not met

Challenge: Would you say "HYDSMTAL" shows amyloid nucleation score at minimum 0.4?
Response given: criterion met

Challenge: Would you say "EIVRLVSVSVWVG" shows amyloid nucleation score at minimum 0.4?
Response given: criterion not met

Challenge: Would you say "WRVNVEVKYFAEKTVQECWV" shows amyloid nucleation score at minimum 0.4?
Response given: criterion met

Challenge: Would you say "LPDTCCR" shows amyloid nucleation score at minimum 0.4?
Response given: criterion met

Challenge: Would you say "QLLSRLGIS" shows amyloid nucleation score at minimum 0.4?
Response given: criterion not met

Challenge: Would you say "NIKDRILYNVYMRGMCIYCL" shows amyloid nucleation score at minimum 0.4?
Response given: criterion met

Challenge: Would you say "ILRSGNVCYHNTVRWVLSYR" shows amyloid nucleation score at minimum 0.4?
Response given: criterion not met

Challenge: Would you say "QYSRLESLLM" shows amyloid nucleation score at minimum 0.4?
Response given: criterion met

Challenge: Would you say "NGLSRYKKDLGLVDWYFGQM" shows amyloid nucleation score at minimum 0.4?
Response given: criterion met

Challenge: Would you say "ISSTGKIFGFFPLCSYMN" shows amyloid nucleation score at minimum 0.4?
Response given: criterion not met

Challenge: Would you say "EFIFFCFVLCYANVMLLWN" shows amyloid nucleation score at minimum 0.4?
Response given: criterion met

Challenge: Would you say "NLRQVCNSAFVVGSVIFFWV" shows amyloid nucleation score at minimum 0.4?
Response given: criterion not met

Challenge: Would you say "MEPLVTQCRHKG" shows amyloid nucleation score at minimum 0.4?
Response given: criterion not met

Challenge: Would you say "MDKLASLLSSKGCAIKGLRS" shows amyloid nucleation score at minimum 0.4?
Response given: criterion not met

Challenge: Would you say "CSDKKLGEWSASWNCNRDRM" shows amyloid nucleation score at minimum 0.4?
Response given: criterion not met

Challenge: Would you say "SDSLFPTPLDFKMKIWGIMV" shows amyloid nucleation score at minimum 0.4?
Response given: criterion not met

Challenge: Would you say "YPWIFCFEILHYYQLVRLWG" shows amyloid nucleation score at minimum 0.4?
Response given: criterion not met

Challenge: Would you say "FMMSNWTNLNSWKTL" shows amyloid nucleation score at minimum 0.4?
Response given: criterion not met

Challenge: Would you say "TFLYKKLTFEVVWGCLIASE" shows amyloid nucleation score at minimum 0.4?
Response given: criterion not met

Challenge: Would you say "WQQWGRSPRTR" shows amyloid nucleation score at minimum 0.4?
Response given: criterion not met

Challenge: Would you say "VQRELFLVLHHTSVGRGSAP" shows amyloid nucleation score at minimum 0.4?
Response given: criterion met

Challenge: Would you say "GYGYFSIVTTRMIVGVHVKC" shows amyloid nucleation score at minimum 0.4?
Response given: criterion not met

Challenge: Would you say "SWRSSTCSALVQGQYKA" shows amyloid nucleation score at minimum 0.4?
Response given: criterion not met

Challenge: Would you say "WVFVNYWSGSKNQ" shows amyloid nucleation score at minimum 0.4?
Response given: criterion met

Challenge: Would you say "PGWYFDTGSAPLQVSRRSGL" shows amyloid nucleation score at minimum 0.4?
Response given: criterion met

Challenge: Would you say "ECYQKTGVCRK" shows amyloid nucleation score at minimum 0.4?
Response given: criterion not met

Challenge: Would you say "CYSVIRREQNLNILV" shows amyloid nucleation score at minimum 0.4?
Response given: criterion met

Challenge: Would you say "RGSTLSGVYCAENRASGFDS" shows amyloid nucleation score at minimum 0.4?
Response given: criterion met

Challenge: Would you say "WLNFWILMSVMFVNMSSLFP" shows amyloid nucleation score at minimum 0.4?
Response given: criterion not met
